Study Target: NADPH oxidase 5 (Homo sapiens) (UniProt Q96PH1)
Sequence (Q96PH1 whole entry, looked up): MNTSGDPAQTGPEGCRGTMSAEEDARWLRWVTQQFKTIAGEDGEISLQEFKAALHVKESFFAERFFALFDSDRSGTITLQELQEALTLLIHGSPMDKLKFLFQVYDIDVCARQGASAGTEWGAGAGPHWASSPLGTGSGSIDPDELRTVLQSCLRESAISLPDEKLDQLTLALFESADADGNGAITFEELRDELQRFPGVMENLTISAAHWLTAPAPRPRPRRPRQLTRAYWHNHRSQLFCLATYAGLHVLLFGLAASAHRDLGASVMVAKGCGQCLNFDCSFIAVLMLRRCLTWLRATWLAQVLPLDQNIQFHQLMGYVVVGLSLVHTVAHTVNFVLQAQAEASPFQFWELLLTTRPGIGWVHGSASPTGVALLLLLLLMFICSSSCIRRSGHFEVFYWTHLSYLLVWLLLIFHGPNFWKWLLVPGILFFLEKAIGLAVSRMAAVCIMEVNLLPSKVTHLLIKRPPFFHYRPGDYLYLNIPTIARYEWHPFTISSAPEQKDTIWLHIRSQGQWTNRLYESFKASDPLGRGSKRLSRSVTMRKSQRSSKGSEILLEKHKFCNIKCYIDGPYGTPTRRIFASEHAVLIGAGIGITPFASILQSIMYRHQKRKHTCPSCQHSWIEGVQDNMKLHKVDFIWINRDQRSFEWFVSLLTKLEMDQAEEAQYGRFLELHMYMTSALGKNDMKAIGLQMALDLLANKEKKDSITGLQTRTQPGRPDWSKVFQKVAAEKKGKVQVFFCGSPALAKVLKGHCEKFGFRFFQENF
Method: compounds shifting NOX5 Amplex Red fluorescence – cell-based, HEK293-NOX5, NOX inhibitor project, primary screen (AID 1161)
Setup Conditions: HEK293-NOX5, ionomycin, 45 min, higher = more signal
Observable: z-score
Give only the figure.

So for CCOC(=O)C1=C[C@@H](C(C)(C)C)N(S(=O)(=O)c2ccc(C)cc2)[C@H]1c1cccc2ccccc12 , the logged z-score turned out to be 0.139

So for CCOC(=O)C1=CC[C@@H](c2ccccc2F)N(S(=O)(=O)c2ccc(C)cc2)[C@H]1c1ccccc1 , the logged z-score turned out to be 2.18

So for CCC1=C2CN(Cc3ccccc3)[C@@H](C(=O)Cc3ccccc3)C2C=CCC1 (stereo partly drawn) , the logged z-score turned out to be -0.123

So for [N-]=[N+]=Nc1ccccc1C[C@@]1(C(N)=O)N=C(c2ccc(OCCCO)cc2)O[C@@H]1c1ccccc1N=[N+]=[N-] , the logged z-score turned out to be -1.55

So for CC(C)[Si](C#CCCCC#N)(O[C@H](c1ccccc1)c1cn(Cc2ccccc2)nn1)C(C)C , the logged z-score turned out to be 0.536

So for COc1ccc(CCNC(=O)[C@@H]2c3ccccc3C(=O)N(C3CCCCC3)[C@H]2c2ccc(CO)cc2)cc1 , the logged z-score turned out to be -2.31

So for C=C[C@H](C)[C@H](OC(=O)Nc1ccc(SC)cc1)c1ccc(OCCO)cc1 , the logged z-score turned out to be -0.756

So for COc1cc2c(cc1O)C(c1cccs1)N(Cc1cc3c(cc1Br)OCO3)CC2 (stereo not drawn) , the logged z-score turned out to be -2.26

So for COc1cc(NN2C(C(O)c3ccco3)C=CC3C(=O)N(C)C(=O)C32)cc(OC)c1OC (stereo not drawn) , the logged z-score turned out to be -2.81

So for CCCC=C(CCC)[C@@H](NS(=O)(=O)CC12CCC(CC1=O)C2(C)C)c1ccc(C(=O)OC)cc1 (stereo partly drawn) , the logged z-score turned out to be 2.48

So for Oc1ccc2cc[n+](Cc3cc4c(cc3Br)OCO4)cc2c1 , the logged z-score turned out to be 0.389

So for C=C[C@@H](CO)N(Cc1ccc(OC)cc1)S(=O)(=O)c1ccc(Br)cc1 , the logged z-score turned out to be -1.26

So for COC(=O)[C@@]1(Cc2ccc(F)cc2)[C@H]2c3cc(C(=O)N(C)C)n(CCc4ccc(OC)c(Br)c4)c3C[C@H]2CN1C(=O)c1ccccc1 , the logged z-score turned out to be -4.26

So for COCCCNC(=O)[C@@]1(Sc2ccc(C)cc2)CC(=O)N(C2Cc3ccccc3C2)[C@@H]1c1ccc(CO)cc1 , the logged z-score turned out to be -1.76

So for COCC(=C=CC[C@H](O)c1ccc(CO)o1)CCO , the logged z-score turned out to be -0.224

So for [N-]=[N+]=NCc1ccccc1[C@H]1OC(c2ccc(OCCCO)cc2)=N[C@@]1(Cc1ccccc1N=[N+]=[N-])C(=O)NCC(O)CO (stereo partly drawn) , the logged z-score turned out to be -1.71

So for Cc1ccccc1C(O)C1C=CC2C(=O)NC(=O)C2N1Nc1ccccn1 (stereo not drawn) , the logged z-score turned out to be -1.27

So for C=C(/C(=C/C[C@H](OC(C)=O)c1ccc(CO)o1)c1cnc2ccccc2c1)C(C)C , the logged z-score turned out to be -0.219
